system: K562; experiment: Cell cycle arrest in human K562 cells assessed as accumulation at G2/M phase at 10 uM after 24 hrs by flow cytometry; assay type: functional
parameter: Activity

> print(dat)
                               smiles.input  result
1  CCOc1cc(OCC)c(/C=C/C(=O)c2c(OC)cccc2OC)c(OCC)c1     12%
2          COc1cccc(OC)c1/C=C/C(=O)c1ccccc1     34%
3  COc1ccc(/C=C/C(=O)c2ccc(OC)cc2OC)c(OC)c1     25%
4       COc1cccc(OC)c1C(=O)/C=C/c1cccc(F)c1     27%
5  COc1cc(OC)c(/C=C/C(=O)c2c(OC)cc(N)cc2OC)c(OC)c1     74%
6  COc1cc(OC)c(/C=C/C(=O)c2c(OC)cccc2OC)c(OC)c1     84%
